- System: Monoclonal antibody (mAb)
- assay-method-text: Binding affinity against human monoclonal antibody (mAb)-7F2
parameter-measured: IC50 ratio

* C[C@]12C=CC(=O)C=C1CC[C@@H]1[C@@H]2[C@@H](O)C[C@@]2(C)[C@H]1CC[C@]2(O)C(=O)COC(=O)CCC(=O)O | 3400
* C[C@@H]1O[C@@H](O[C@H]2C[C@@H](O)[C@]3(CO)[C@H]4[C@H](O)C[C@]5(C)[C@@H](C6=CC(=O)OC6)CC[C@]5(O)[C@@H]4CC[C@]3(O)C2)[C@H](O)[C@H](O)[C@H]1O | 39000
* CC(=O)O[C@H]1CC[C@]2(C=O)[C@H]3CC[C@]4(C)[C@@H](C5=CC(=O)OC5)CC[C@]4(O)[C@@H]3CC[C@]2(O)C1 | 17
* CC(=O)O[C@H]1C[C@H](O[C@H]2[C@@H](O)C[C@H](O[C@H]3[C@@H](O)C[C@H](O[C@H]4CC[C@@]5(C)[C@H](CC[C@@H]6[C@@H]5C[C@@H](O)[C@]5(C)[C@@H](C7=CC(=O)OC7)CC[C@]65O)C4)O[C@@H]3C)O[C@@H]2C)O[C@H](C)[C@H]1O[C@@H]1O[C@H](CO)[C@@H](O)[C@H](O)[C@H]1O | 1.4
* CO[C@H]1C[C@H](O[C@H]2CC[C@@]3(C)[C@H](CC[C@@H]4[C@@H]3CC[C@]3(C)[C@@H](C5=CC(=O)OC5)[C@@H](OC(C)=O)C[C@]43O)C2)O[C@@H](C)[C@@H]1O | 3200

Okay, next one:
The compound listed as "C[C@]12C[C@@H](O)[C@H]3[C@@H](CC[C@]4(O)C[C@@H](O)C[C@@H](O)[C@]34CO)[C@@]1(O)CC[C@@H]2C1=CC(=O)OC1" shows IC50 ratio equal to 13000

###

This section presents molecules with their documented Relative Ki values.
- System: Monoclonal antibody (mAb)
- assay-method-text: Binding affinity against murine monoclonal antibody (mAb)-40-50
Please give the numeric answer without any surrounding text.

Observe how each entry below is paired with its result.
• C[C@]12CC[C@H](O)C[C@H]1CC[C@@H]1[C@@H]2CC[C@]2(C)[C@@H](C3=CC(=O)OC3)CC[C@]12O [DIGITOXIGENIN] = 2
• C[C@]12CC[C@H](O)C[C@H]1CC[C@@H]1[C@@H]2C[C@@H](O)[C@]2(C)[C@@H]([C@@H]3COC(=O)C3)CC[C@]12O = 300

Item: CO[C@H]1[C@@H](O)[C@@H](C)O[C@@H](O[C@H]2CC[C@@]3(C)[C@H](CC[C@@H]4[C@@H]3CC[C@]3(C)[C@@H](C5=CC(=O)OC5)C(O)C[C@]43O)C2)[C@@H]1O (stereo partly drawn) | Relative Ki: 35

###

Relative Ki reference
- Test system: Monoclonal antibody (mAb)
- assay-method-text: Binding affinity against murine monoclonal antibody (mAb)-40-50
Form field (numeric): enter value without unit.

• CO[C@@H]1[C@H](O)[C@@H](O[C@@H]2C[C@H]3CC[C@@H]4[C@H](CC[C@]5(C)[C@@H](C6=CC(=O)OC6)CC[C@]45O)[C@@]3(C)[C@H](O)C2)O[C@@H](C)[C@@H]1O = 0.5

GET /value?item= "CC(=O)O[C@H]1C[C@]2(O)[C@@H]3CC[C@@H]4C[C@@H](O)CC[C@]4(C)[C@H]3CC[C@]2(C)[C@H]1C1=CC(=O)OC1" &field=Relative Ki returns 8600

Briefly, Relative Ki measured for "C[C@@H]1O[C@@H](O[C@H]2C[C@@H](O)[C@]3(CO)[C@H]4[C@H](O)C[C@]5(C)[C@@H](C6=CC(=O)OC6)CC[C@]5(O)[C@@H]4CC[C@]3(O)C2)[C@H](O)[C@H](O)[C@H]1O" : 7

Lab note: "CO[C@H]1C[C@H](O[C@H]2CC[C@@]3(C)[C@H](CC[C@@H]4[C@@H]3CC[C@]3(C)[C@@H](C5=CC(=O)OC5)[C@@H](OC(C)=O)C[C@]43O)C2)O[C@@H](C)[C@@H]1O" gave Relative Ki of 200

response.value for "CC(=O)O[C@H]1C[C@]2(O)[C@@H]3CC[C@@H]4C[C@@H](O[C@H]5C[C@H](O)[C@H](O)[C@@H](C)O5)CC[C@]4(C)[C@H]3CC[C@]2(C)[C@H]1C1=CC(=O)OC1" (field: Relative Ki) = 4
